Experiment: Pyrotinib plasma pharmacokinetics with/without montmorillonite powder (Group A), LC-MS/MS, NCA
Format: in vivo, healthy volunteers
Conditions: human, plasma, oral, 400 mg, Group A, pyrotinib alone, 400 mg, day 1; median (minimum, maximum)
MEASURED QUANTITY: Tmax (h)

- CCOc1cc2ncc(C#N)c(Nc3ccc(OCc4ccccn4)c(Cl)c3)c2cc1NC(=O)/C=C/[C@H]1CCCN1C: 5

====

Experiment: Pyrotinib plasma pharmacokinetics with/without montmorillonite powder (Group A), LC-MS/MS, NCA
Format: in vivo, healthy volunteers
Settings: human, plasma, oral, 400 mg; Group A, pyrotinib alone; mixed-effects model; read-out: Geometric least-square mean AUC0-t
Procedure: On day 1, all subjects received a single oral dose of 400 mg pyrotinib after breakfast. […] The analysis of plasma samples for pyrotinib was based on a validated and sensitive liquid chromatography-tandem mass spectrometry (LC-MS/MS) method with high specificity. The plasma samples were stored at −70°C and analyzed within a stability period of 176 days. […]
MEASURED QUANTITY: AUC(0-t)

* CCOc1cc2ncc(C#N)c(Nc3ccc(OCc4ccccn4)c(Cl)c3)c2cc1NC(=O)/C=C/[C@H]1CCCN1C | 1830 ng·h/mL

Data credit: paper PMC12104674
